system.under.test: short 17-residues peptide (cargo used with CADY-2)
procedure.summary: steady state Trp fluorescence quenching; fixed CADY (0.1 uM) titrated with cargo peptide; quadratic fit
pKd: −log10 of the molar value. Numbered stars: 1 amine (or outer) side, 2 acyl side, 3 side chain; on linkers, the order of the positions; unused ones are H or OH. Cysteamide = C(CS[*:3])N[*:1]
readout.type: pKd

- binder: "Ac-GLWRALWRALWRSLWKLKWKV-Cysteamide [CADY-2 (Ac-…-Cya)]"
  reading: 7.72
